# ASSAY SYSTEM: HIV-1 RT double mutant K103N/Y181C (Human immunodeficiency virus type 1 group M subtype B, UniProt P04585, K690N/Y768C)
# Construct: Heterodimeric RT was eluted using a descending gradient; the text describes only wild type and Y181C preparations)
# PROTOCOL TEXT: Reverse Transcriptase (RT) assay, double mutant enzyme
pIC50: −log10 of the molar value.
PARAMETER: pIC50

Solved entries (count: 5):
[[record]]
line_notation = "CCN1c2ncc(CCOc3cccc4c3CCN(CCCC(=O)NN)S4(=O)=O)cc2C(=O)N(C)c2cccnc21"
parameter = "pIC50"
recorded_value = "> 7.00"

[[record]]
line_notation = "CCN1c2ncc(CCOc3cccc4c3CS(=O)(=O)N4)cc2C(=O)Nc2c(C)cc(F)nc21"
parameter = "pIC50"
recorded_value = "6.00 to 7.00"

[[record]]
line_notation = "CN1C(=O)c2cc(CCOc3cccc4c3CS(=O)(=O)N4C)cnc2N(C2CC2)c2ncccc21"
parameter = "pIC50"
recorded_value = "6.00 to 7.00"

[[record]]
line_notation = "CCN1c2ncc(CCOc3cccc4c3CCS(=O)(=O)N4CCOC(N)=O)cc2C(=O)N(C)c2cccnc21"
parameter = "pIC50"
recorded_value = "> 7.00"

[[record]]
line_notation = "CCN1c2ncc(CCOc3cccc4c3CCS(=O)(=O)N4CC(=O)NS(C)(=O)=O)cc2C(=O)N(C)c2cccnc21"
parameter = "pIC50"
recorded_value = "> 7.00"


Inquiry: # return recorded pIC50 for entry CCN1c2ncc(CCOc3cccc4c3CS(=O)(=O)N4CCO)cc2C(=O)N(C)c2cccnc21
Reply text: > 7.00

Inquiry: # return recorded pIC50 for entry CCN1c2ncc(CCOc3cccc4c3CCS(=O)(=O)N4C(=O)N3CCN(C)CC3)cc2C(=O)N(C)c2cccnc21
Reply text: > 7.00
